# target: human serum albumin (HSA) (Homo sapiens)
# Sequence (P02768 25-609): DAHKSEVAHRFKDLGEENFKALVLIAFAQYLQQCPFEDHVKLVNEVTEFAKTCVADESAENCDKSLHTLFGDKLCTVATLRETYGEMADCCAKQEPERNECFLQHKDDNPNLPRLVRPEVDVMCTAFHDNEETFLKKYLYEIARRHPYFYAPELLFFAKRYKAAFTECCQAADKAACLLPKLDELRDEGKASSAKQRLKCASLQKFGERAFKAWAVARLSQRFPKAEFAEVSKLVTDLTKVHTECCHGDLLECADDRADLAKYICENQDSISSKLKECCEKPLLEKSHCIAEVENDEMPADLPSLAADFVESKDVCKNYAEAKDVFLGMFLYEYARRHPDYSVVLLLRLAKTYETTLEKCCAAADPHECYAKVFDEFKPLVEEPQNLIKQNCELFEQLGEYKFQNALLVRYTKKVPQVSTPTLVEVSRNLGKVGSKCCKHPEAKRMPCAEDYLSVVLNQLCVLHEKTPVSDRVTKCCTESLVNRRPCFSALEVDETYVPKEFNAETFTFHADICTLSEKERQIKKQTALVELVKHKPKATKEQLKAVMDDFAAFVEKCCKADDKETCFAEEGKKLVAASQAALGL
# assayNotes: Non-competitive isothermal titration calorimetry (ITC)
# experimentalConditions: Kd, CSC 5300 Nano-Isothermal Titration Calorimeter III; 25°C, pH 7.4
Residues, ends and D or L forms follow the SMILES beside them.
measure: Kd (µM)
Give the quantity in µM, number only.

Some solved entries appear below for comparison.
1) N=C(N)NCCC[C@H](NC(=O)[C@H](Cc1ccc(-c2ccccc2)cc1)NC(=O)[C@@H](N)CCCNC(=N)N)C(=O)NCc1ccccc1 [CAP 3] (HELM PEPTIDE1{R.[O=C([C@H](Cc1ccc(-c2ccccc2)cc1)N[*:1])[*:2]].R.[c1ccc(CN[*:1])cc1]}$$$$V2.0)
22
2) CN(C)c1cccc2c(S(=O)(=O)NCC(=O)O)cccc12
11
3) N=C(N)NCCC[C@H](NC(=O)[C@H](Cc1c[nH]c2ccccc12)NC(=O)[C@@H](N)CCCNC(=N)N)C(=O)NCc1ccccc1 [CAP 2] (HELM PEPTIDE1{R.W.R.[c1ccc(CN[*:1])cc1]}$$$$V2.0)
23

Now consider a different compound.
Inquiry: Reported Kd for CC(C)(C)c1cc(C(C)(C)C)c2[nH]c(C(C)(C)C)c(C[C@H](NC(=O)[C@@H](N)CCCNC(=N)N)C(=O)N[C@@H](CCCNC(=N)N)C(=O)NCc3ccccc3)c2c1 : what is it?
Reply text: 25

Reference for the values: paper PMC3907362
